- target.under.test: Voltage-gated inwardly rectifying potassium channel KCNH2 (Homo sapiens, UniProt Q12809)
- Sequence (Q12809 whole entry): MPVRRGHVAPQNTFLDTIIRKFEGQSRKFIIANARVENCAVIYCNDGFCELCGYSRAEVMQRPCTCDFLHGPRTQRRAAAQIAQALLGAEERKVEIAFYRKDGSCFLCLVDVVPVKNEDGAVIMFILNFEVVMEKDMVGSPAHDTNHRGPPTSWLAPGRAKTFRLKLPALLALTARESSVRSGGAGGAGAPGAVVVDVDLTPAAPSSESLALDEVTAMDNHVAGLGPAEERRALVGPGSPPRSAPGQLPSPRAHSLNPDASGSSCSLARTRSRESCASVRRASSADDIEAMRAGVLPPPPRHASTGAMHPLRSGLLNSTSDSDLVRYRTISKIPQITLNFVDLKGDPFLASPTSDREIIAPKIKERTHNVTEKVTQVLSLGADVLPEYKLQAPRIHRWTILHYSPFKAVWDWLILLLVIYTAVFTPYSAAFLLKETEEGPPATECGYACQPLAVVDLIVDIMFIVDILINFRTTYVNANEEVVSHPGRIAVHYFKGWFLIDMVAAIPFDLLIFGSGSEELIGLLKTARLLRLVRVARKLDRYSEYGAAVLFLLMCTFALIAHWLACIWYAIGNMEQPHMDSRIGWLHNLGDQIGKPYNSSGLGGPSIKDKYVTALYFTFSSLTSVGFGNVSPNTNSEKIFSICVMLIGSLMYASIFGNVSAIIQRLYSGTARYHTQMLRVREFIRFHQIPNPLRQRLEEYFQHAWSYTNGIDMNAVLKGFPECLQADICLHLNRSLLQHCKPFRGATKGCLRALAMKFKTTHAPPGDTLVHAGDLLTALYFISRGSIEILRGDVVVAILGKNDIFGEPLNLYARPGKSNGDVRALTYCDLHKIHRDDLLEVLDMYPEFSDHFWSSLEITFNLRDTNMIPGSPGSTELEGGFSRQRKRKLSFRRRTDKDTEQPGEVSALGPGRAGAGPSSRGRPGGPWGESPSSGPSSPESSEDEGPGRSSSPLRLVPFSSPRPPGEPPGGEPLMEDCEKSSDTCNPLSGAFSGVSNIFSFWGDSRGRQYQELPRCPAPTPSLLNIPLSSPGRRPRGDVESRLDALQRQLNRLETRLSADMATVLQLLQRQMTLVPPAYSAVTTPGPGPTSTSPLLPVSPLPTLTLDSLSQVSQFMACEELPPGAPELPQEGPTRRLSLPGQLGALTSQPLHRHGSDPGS
- procedure.text: Inhibition of human ERG expressed in CHO cells at holding potential of -80 mV after 60 secs by patch clamp assay
metric: IC50 (µM)
Kindly provide the numeric value in µM only, without the unit symbol.

Asked: // fetch IC50 for `Cc1ccc([C@H](CCN2[C@@H]3CC[C@H]2C[C@H](n2c(C)nnc2C(C)C)C3)NC(=O)C2CCC(F)(F)CC2)s1` ; system: Voltage-gated inwardly rectifying potassium channel KCNH2 (Homo sapiens, UniProt Q12809)
Given back: 3.38

Asked: // fetch IC50 for `Cc1nnc(C(C)C)n1[C@@H]1C[C@H]2CC[C@@H](C1)N2CC[C@H](NC(=O)C1CCCCC1)c1cccs1` ; system: Voltage-gated inwardly rectifying potassium channel KCNH2 (Homo sapiens, UniProt Q12809)
Given back: 2.06

Asked: // fetch IC50 for `Cc1nnc(C(C)C)n1[C@@H]1C[C@H]2CC[C@@H](C1)N2CC[C@H](NC(=O)C1CCC(F)(F)CC1)c1cccs1` ; system: Voltage-gated inwardly rectifying potassium channel KCNH2 (Homo sapiens, UniProt Q12809)
Given back: 3.5

Asked: // fetch IC50 for `Cc1nnc(C(C)C)n1[C@@H]1C[C@H]2CC[C@@H](C1)N2CC[C@H](NC(=O)C1CCCC1)c1cccs1` ; system: Voltage-gated inwardly rectifying potassium channel KCNH2 (Homo sapiens, UniProt Q12809)
Given back: 1.52
